B1: glmS ribozyme (parent)
chain: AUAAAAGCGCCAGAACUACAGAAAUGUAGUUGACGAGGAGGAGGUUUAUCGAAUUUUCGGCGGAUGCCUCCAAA

Variants of: B1
Assay: self-cleavage kobs at 2500 uM GlcN6P; higher = faster cleavage; RNA array
Settings: with glucosamine-6-phosphate
Variants at the floor of the assay were thinned out.
Record form. Attribute: self-cleavage kobs at 2500 uM GlcN6P. Fill in for each entry.

QUERY: Can you look up the measured self-cleavage kobs at 2500 uM GlcN6P of U47A C71G for me?
RESULT: 0.00055 s⁻¹

QUERY: Query: self-cleavage kobs at 2500 uM GlcN6P; subject: C11G A14G G43U G60C
RESULT: < 1e-05 s⁻¹

QUERY: Quick one: self-cleavage kobs at 2500 uM GlcN6P for G60C C67A ?
RESULT: < 1e-05 s⁻¹

QUERY: Entry under review: A6C A15U A36C G43A U46G C50U A53U C61U . Reported self-cleavage kobs at 2500 uM GlcN6P?
RESULT: < 1e-05 s⁻¹

QUERY: For the variant C50G C58A G66A , what self-cleavage kobs at 2500 uM GlcN6P is on record?
RESULT: 0.000121 s⁻¹

QUERY: # input variant: G41U G60C ; wanted: its self-cleavage kobs at 2500 uM GlcN6P
RESULT: < 1e-05 s⁻¹

QUERY: Need self-cleavage kobs at 2500 uM GlcN6P, item A15U G40A
RESULT: 0.000515 s⁻¹

QUERY: GET /values?readout=self-cleavage kobs at 2500 uM GlcN6P&item= G35U A36G U45C U65G
RESULT: < 1e-05 s⁻¹

QUERY: Which self-cleavage kobs at 2500 uM GlcN6P value belongs to A14U A15G G37A ?
RESULT: 0.000224 s⁻¹

QUERY: Need self-cleavage kobs at 2500 uM GlcN6P, item A15C U46C
RESULT: 0.000176 s⁻¹

QUERY: Would you kindly share the measured self-cleavage kobs at 2500 uM GlcN6P for A36C G37A A39C C50U A53C ?
RESULT: < 1e-05 s⁻¹

QUERY: Consider the variant G29A A39U A42U and give its measured self-cleavage kobs at 2500 uM GlcN6P.
RESULT: 0.000488 s⁻¹

QUERY: Would you mind telling me what self-cleavage kobs at 2500 uM GlcN6P value was observed for G7U C10A G60U ?
RESULT: < 1e-05 s⁻¹

QUERY: Can you share its self-cleavage kobs at 2500 uM GlcN6P? I mean this variant: A6G G9A G38A G41A U57A
RESULT: < 1e-05 s⁻¹

QUERY: Please give the measured self-cleavage kobs at 2500 uM GlcN6P for this variant: G51U G63U A64C
RESULT: < 1e-05 s⁻¹

QUERY: Quick check: self-cleavage kobs at 2500 uM GlcN6P of A15G G32A G35U A52C ?
RESULT: < 1e-05 s⁻¹

QUERY: Consider the variant shown here: G9C U45A What is its recorded self-cleavage kobs at 2500 uM GlcN6P?
RESULT: < 1e-05 s⁻¹

QUERY: I have this variant here, A6G A15U A52U , and I need its recorded self-cleavage kobs at 2500 uM GlcN6P.
RESULT: < 1e-05 s⁻¹

QUERY: Consider the variant C10U G32C A36G A39U and give its measured self-cleavage kobs at 2500 uM GlcN6P.
RESULT: < 1e-05 s⁻¹

QUERY: What self-cleavage kobs at 2500 uM GlcN6P value was documented for this variant, A36G A39C U47G ?
RESULT: < 1e-05 s⁻¹

QUERY: For G7U A42C A64U G66U , what is its reported self-cleavage kobs at 2500 uM GlcN6P?
RESULT: < 1e-05 s⁻¹

QUERY: Recorded self-cleavage kobs at 2500 uM GlcN6P for G35C G44C U45C A48G , please?
RESULT: < 1e-05 s⁻¹

QUERY: Endpoint output: self-cleavage kobs at 2500 uM GlcN6P of A6C A14G . Value?
RESULT: 0.000164 s⁻¹

QUERY: Would you mind telling me what self-cleavage kobs at 2500 uM GlcN6P value was observed for G7U G60A ?
RESULT: < 1e-05 s⁻¹

QUERY: Using the record for A33C G38C , report its self-cleavage kobs at 2500 uM GlcN6P.
RESULT: < 1e-05 s⁻¹

QUERY: Looking for the measured self-cleavage kobs at 2500 uM GlcN6P of G13C A14U G32A , can you help?
RESULT: 0.00667 s⁻¹

QUERY: Returns the measured self-cleavage kobs at 2500 uM GlcN6P for the input variant. Input: G35C C68A C71U
RESULT: < 1e-05 s⁻¹

QUERY: Give the measured self-cleavage kobs at 2500 uM GlcN6P of G41A C61A G62A .
RESULT: < 1e-05 s⁻¹

QUERY: If you can, please state the reported self-cleavage kobs at 2500 uM GlcN6P value of A36C A64C .
RESULT: < 1e-05 s⁻¹

QUERY: I have this variant here, G7U U30G A33U G44C , and I need its recorded self-cleavage kobs at 2500 uM GlcN6P.
RESULT: < 1e-05 s⁻¹

QUERY: May I ask what self-cleavage kobs at 2500 uM GlcN6P has been recorded for A14C U47G ?
RESULT: 0.000422 s⁻¹

QUERY: # get_value(readout='self-cleavage kobs at 2500 uM GlcN6P', item= C11U U31A )
RESULT: 0.000431 s⁻¹

QUERY: Can you share its self-cleavage kobs at 2500 uM GlcN6P? I mean this variant: C10U G13U A52U
RESULT: < 1e-05 s⁻¹

QUERY: Fill in: self-cleavage kobs at 2500 uM GlcN6P of G32U A53U is ___
RESULT: 0.000361 s⁻¹

QUERY: # input variant: G40U C50U G63A C67A ; wanted: its self-cleavage kobs at 2500 uM GlcN6P
RESULT: < 1e-05 s⁻¹

QUERY: Which self-cleavage kobs at 2500 uM GlcN6P is reported for this variant? U47A U49G
RESULT: 7.57e-05 s⁻¹

QUERY: State the recorded self-cleavage kobs at 2500 uM GlcN6P for this entry: G9C G13C C34A G62C A64G
RESULT: < 1e-05 s⁻¹

QUERY: Item U30C G43A has what recorded self-cleavage kobs at 2500 uM GlcN6P?
RESULT: < 1e-05 s⁻¹

QUERY: Given the entry A15C U47A , report its measured self-cleavage kobs at 2500 uM GlcN6P.
RESULT: 0.00226 s⁻¹

QUERY: Given G40C C68A , state its recorded self-cleavage kobs at 2500 uM GlcN6P.
RESULT: < 1e-05 s⁻¹

QUERY: Which self-cleavage kobs at 2500 uM GlcN6P value belongs to A6U U31G A36U ?
RESULT: < 1e-05 s⁻¹

QUERY: Given G35U C58U , state its recorded self-cleavage kobs at 2500 uM GlcN6P.
RESULT: < 1e-05 s⁻¹

QUERY: self-cleavage kobs at 2500 uM GlcN6P lookup needed for C11A A53U , thanks.
RESULT: 6.02e-05 s⁻¹

QUERY: Given the variant G32C G35U A52G , what is its reported self-cleavage kobs at 2500 uM GlcN6P?
RESULT: < 1e-05 s⁻¹

QUERY: Which measured self-cleavage kobs at 2500 uM GlcN6P value corresponds to G32C A36C G51C A53C G66A ?
RESULT: < 1e-05 s⁻¹

QUERY: # get_value(readout='self-cleavage kobs at 2500 uM GlcN6P', item= C8U U49A )
RESULT: < 1e-05 s⁻¹

QUERY: # input variant: G43C G51U C61G ; wanted: its self-cleavage kobs at 2500 uM GlcN6P
RESULT: < 1e-05 s⁻¹

QUERY: Which self-cleavage kobs at 2500 uM GlcN6P value is on record for U56A U57G ?
RESULT: 4.92e-05 s⁻¹

QUERY: # lookup: self-cleavage kobs at 2500 uM GlcN6P of A12U U31A
RESULT: 0.0106 s⁻¹

QUERY: Which value of self-cleavage kobs at 2500 uM GlcN6P has been reported for C8U U46G C61U in the records?
RESULT: < 1e-05 s⁻¹

QUERY: If you can, please state the reported self-cleavage kobs at 2500 uM GlcN6P value of A14G U30A .
RESULT: 0.0384 s⁻¹

QUERY: For the variant shown here, C10G A14U G32U C61A G63A , give the reported self-cleavage kobs at 2500 uM GlcN6P.
RESULT: < 1e-05 s⁻¹

QUERY: Endpoint output: self-cleavage kobs at 2500 uM GlcN6P of G38A G40A U49G G60U . Value?
RESULT: < 1e-05 s⁻¹

QUERY: Looking for the measured self-cleavage kobs at 2500 uM GlcN6P of A39G G43C A52C , can you help?
RESULT: < 1e-05 s⁻¹

QUERY: State the recorded self-cleavage kobs at 2500 uM GlcN6P for this entry: A12G C61U C67U C68G
RESULT: 5.12e-05 s⁻¹

QUERY: Give the measured self-cleavage kobs at 2500 uM GlcN6P of G35U U47A .
RESULT: < 1e-05 s⁻¹

QUERY: Can you share its self-cleavage kobs at 2500 uM GlcN6P? I mean this variant: G63U C70G
RESULT: 2.19e-05 s⁻¹

QUERY: Which self-cleavage kobs at 2500 uM GlcN6P is listed for G38A G44C C67U C71A ?
RESULT: < 1e-05 s⁻¹

QUERY: Data request, read-out self-cleavage kobs at 2500 uM GlcN6P, for C34A G35C A39G G44U C67A C71G
RESULT: < 1e-05 s⁻¹

QUERY: What does the data say about its self-cleavage kobs at 2500 uM GlcN6P? Entry: C11U A14U G43U U54A G63A
RESULT: < 1e-05 s⁻¹

QUERY: Please report the recorded self-cleavage kobs at 2500 uM GlcN6P for G9U C58G G59C .
RESULT: < 1e-05 s⁻¹

QUERY: For the variant C11U A15C , what self-cleavage kobs at 2500 uM GlcN6P is on record?
RESULT: 0.000368 s⁻¹

QUERY: Give the measured self-cleavage kobs at 2500 uM GlcN6P of A6U C67G C71A .
RESULT: < 1e-05 s⁻¹

QUERY: Any idea what its self-cleavage kobs at 2500 uM GlcN6P is? The variant is G13C C16U C71U
RESULT: 7.64e-05 s⁻¹

QUERY: Which self-cleavage kobs at 2500 uM GlcN6P value belongs to G41A C67G C70U ?
RESULT: 0.000826 s⁻¹

QUERY: Consider the variant shown here: A12U U46C What is its recorded self-cleavage kobs at 2500 uM GlcN6P?
RESULT: 0.00688 s⁻¹

QUERY: What does the data say about its self-cleavage kobs at 2500 uM GlcN6P? Entry: A15G A33C A64U
RESULT: < 1e-05 s⁻¹

QUERY: Dear colleague, I am looking for the recorded self-cleavage kobs at 2500 uM GlcN6P of the following variant: U46C U56A
RESULT: 0.000915 s⁻¹

QUERY: Please report the recorded self-cleavage kobs at 2500 uM GlcN6P for G13A U56A .
RESULT: 0.000312 s⁻¹

QUERY: State the recorded self-cleavage kobs at 2500 uM GlcN6P for this entry: G9A U54G G62A
RESULT: < 1e-05 s⁻¹

QUERY: What measured self-cleavage kobs at 2500 uM GlcN6P goes with U45A U65C ?
RESULT: 0.00204 s⁻¹

QUERY: I am curious: what self-cleavage kobs at 2500 uM GlcN6P value has been reported for C8A C67A ?
RESULT: < 1e-05 s⁻¹

QUERY: What value of self-cleavage kobs at 2500 uM GlcN6P has been reported for the following variant? G9C A42U G44U
RESULT: < 1e-05 s⁻¹
